- Tested on: RARb homodimer (NR concentration 270 nM)
- experimental protocol: PBM binding z-score (relative to random genomic background probes); higher = stronger binding; sequences stand for … in GC…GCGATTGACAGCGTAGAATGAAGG
Lab note: anything with PBM binding z-score at or over 2 counts as fulfilled; the rest go in not fulfilled.

Request: Is reported PBM binding z-score greater than or equal to 2 here: CGTCCAAGGTCAGGAGGTCAGTGAAAGCGACGTG
Response: fulfilled

----------
- System: PPARg DBDmut IVT, anti-PPARg (DBD mutation: PPARg1 K132A/R137A, NR concentration 270 nM)
- experimental protocol: PBM binding z-score (relative to random genomic background probes); higher = stronger binding; sequences stand for … in GC…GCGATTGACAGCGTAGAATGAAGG
Just so you know, the groups by PBM binding z-score go like this: A (below 0.1), B (0.1 to below 0.9), C (0.9 or more)

Request: Classify this sequence: TCTATTAGTTGATTGGGGCAACCGAAACAGCGGA
Response: C

Request: Classify this sequence: TCTTGTAGATCAGTAGAGGTTAAGAAAGTGCGCT
Response: B

Request: Classify this sequence: GCTTGTAGAACAAGGTTAAGAAAGACTAAGCTAA
Response: A

Request: Classify this sequence: ATCTCTAGGTAAAAGTTCAGGGAATCCCGAGGAT
Response: C

Request: Classify this sequence: ATATGTAGGTTATCGGGGCATTCAGTTTGCGCAT
Response: C

Request: Classify this sequence: TCTTGTAGATCAACAGGACGTTAAGAAAGATCGA
Response: C

Request: Classify this sequence: AGAATGAGGTTAGACGTAGATCAGGGAAGAAAGT
Response: C

Request: Classify this sequence: ATCGTAAGGTCGACGAGGTGAGTATACACCGTTT
Response: A

Request: Classify this sequence: CCTACTGGGCCAAGGTCATTTATCAGTCAAAGCA
Response: A

Request: Classify this sequence: CAAACTAGTTCACAGAGGTCAAAGTCCGTGCGTA
Response: B

Request: Classify this sequence: CTACCAAGGTGAACAAGGTCGTTGTTTACTATTC
Response: B

Request: Classify this sequence: TCTGCTAGGTCAACGATGGTCATCTAATCTGCTA
Response: B

Request: Classify this sequence: CCGAGCAGGCCAGGGTCACTCAAGCATTTCGCTT
Response: A

Request: Classify this sequence: CAAACTAGGACAAGAGGTCAAAGTCCGCTTCCCG
Response: B
